The following compounds are shown together with reported activity at 30 µM values.
System: right atria
Test: Pharmacological Test 1: spontaneous contraction of isolated right atria (chronotropic effect)
Design: species or system male Hartley guinea pig
Protocol conditions: Cavia porcellus; 3×10^-5 M; percentage of atrial rate after injection, rate before injection = 100%; 30° C.
Readout type: activity at 30 µM (%)

* COc1ccc(C(CN2CC=C(C3=NNC(=O)CS3)CC2)OC(C)C)cc1 (stereo not drawn) [Compound 71] | 98.7
* Cc1ccc(C(O)CN2CC=C(C3=NNC(=O)CS3)CC2)cc1 (stereo not drawn) [Compound 21] | 84.5
* O=C1CSC(c2ccncc2)=NN1 [a, reference compound] | 159
* O=C1CCC(C2=CCN(CC(O)c3ccccc3Cl)CC2)=NN1 (stereo not drawn) [Compound 50] | 98.6
* O=C1CSC(C2=CCN(CC(O)c3cccc(Cl)c3)CC2)=NN1 (stereo not drawn) [Compound 12] | 93.8
* O=C1NN=C(c2ccncc2)CS1 [b, reference compound] | 117
* COc1ccc(OC)c(C(O)CN2CC=C(C3=NNC(=O)CS3)CC2)c1 (stereo not drawn) [Compound 8] | 89
* O=C1CSC(C2=CCN(CC(O)c3ccc([N+](=O)[O-])cc3)CC2)=NN1 (stereo not drawn) [Compound 31] | 90.4
* O=C1NN=C(C2=CCN(CC(O)c3ccccc3)CC2)CS1 (stereo not drawn) [Compound 40] | 98.1

----------
Test: Pharmacological Test 2: acute toxicity, tail vein administration, up-and-down method
Protocol conditions: mouse, in vivo, iv, tail vein of ddY mice, in physiological saline solution
Counter-ions that a name gives are not always drawn.
The following compounds are shown together with reported LD50 values.
Readout type: LD50 (mg/kg)

* O=C1CSC(C2=CCN(CC(O)c3ccc(F)cc3)CC2)=NN1 (stereo not shown) [hydrochloride of compound 35] | 226
* O=C1CNC(C2=CCN(CC(O)c3ccc([N+](=O)[O-])cc3)CC2)=NN1 (stereo not shown) [hydrochloride of compound 60] | 226
* Cc1ccc(C(O)CN2CC=C(C3=NNC(=O)CS3)CC2)c(C)c1 (stereo not shown) [hydrochloride of compound 25] | 135
* Cc1ccc(C(O)CN2CC=C(C3=NNC(=O)CS3)CC2)cc1 (stereo not shown) [hydrochloride of compound 21] | 226
* Cc1cccc(C(O)CN2CC=C(C3=NNC(=O)CS3)CC2)c1 (stereo not shown) [hydrochloride of compound 20] | 173
* O=C1CSC(C2=CCN(CC(O)c3cccc([N+](=O)[O-])c3)CC2)=NN1 (stereo not shown) [hydrochloride of compound 30] | 160
* O=C1CSC(C2=CCN(CC(O)c3ccc(Cl)cc3)CC2)=NN1 (stereo not shown) [hydrochloride of compound 13] | 101

----------
System: right atria
Test: Pharmacological Test 1: spontaneous contraction of isolated right atria (chronotropic effect)
Parameters: species or system male Hartley guinea pig
Protocol conditions: Cavia porcellus; 3×10^-5 M; percentage of atrial rate after injection, rate before injection = 100%; 30° C.
Protocol: Nos. of the compounds in the pharmacological tests 1 and 2 correspond to those in Examples referred to hereinafter. A heart was removed from a male Hartley guinea pig (having a body weight of about 400 g or so) and a right atrium and papillary muscles of a right ventricle were separated from the removed heart. These preparations were suspended in 15 ml of Magnus' bath under load of 0.5 g (papillary muscles) or 1.0 g (right atria). […]
Readout type: activity at 30 µM (%)

* O=C1CSC(C2=CCN(CC(O)c3ccc(Cl)cc3)CC2)=NN1 (stereo not drawn) [Compound 13] | 93.4
* O=C1CNC(c2ccncc2)=NN1 [d, reference compound] | 112
* O=C1CCC(c2ccncc2)=NN1 [c, reference compound] | 110
* O=C1CSC(C2=CCN(CC(O)c3ccc(Cl)cc3Cl)CC2)=NN1 (stereo not drawn) [Compound 17] | 85.8
* O=C1CSC(C2=CCN(CC(O)c3ccc4c(c3)OCO4)CC2)=NN1 (stereo not drawn) [Compound 32] | 93.1
* O=C1CNC(C2=CCN(CC(O)c3ccc(Cl)cc3)CC2)=NN1 (stereo not drawn) [Compound 57] | 94.9
* O=C1NN=C(C2=CCN(CC(O)c3cccc(C(F)(F)F)c3)CC2)CS1 (stereo not drawn) [Compound 48] | 77.7
* O=C1CNC(C2=CCN(CC(O)c3ccc([N+](=O)[O-])cc3)CC2)=NN1 (stereo not drawn) [Compound 60] | 92.6
* O=C1CSC(C2=CCN(CC(O)c3ccccc3[N+](=O)[O-])CC2)=NN1 (stereo not drawn) [Compound 29] | 101

This collection of values is drawn from patent US5574033A.
